Each recorded value in this set is attributed to ChEMBL document CHEMBL1141598.

Assay: Oral bioavailability in rat
Assay type: ADME, organism-based
Settings: in vivo
Measured Parameter: bioavailability (%)
Numbers only; they are read as %.

Value of measured bioavailability for the entry CC(C)(N)C(=O)N[C@H](COCc1ccccc1)c1nnnn1[C@H](CC#N)COc1ccccn1 : 24

###

Target: Growth hormone secretagogue receptor type 1 (Homo sapiens, UniProt Q92847)
Sequence (Q92847 whole entry): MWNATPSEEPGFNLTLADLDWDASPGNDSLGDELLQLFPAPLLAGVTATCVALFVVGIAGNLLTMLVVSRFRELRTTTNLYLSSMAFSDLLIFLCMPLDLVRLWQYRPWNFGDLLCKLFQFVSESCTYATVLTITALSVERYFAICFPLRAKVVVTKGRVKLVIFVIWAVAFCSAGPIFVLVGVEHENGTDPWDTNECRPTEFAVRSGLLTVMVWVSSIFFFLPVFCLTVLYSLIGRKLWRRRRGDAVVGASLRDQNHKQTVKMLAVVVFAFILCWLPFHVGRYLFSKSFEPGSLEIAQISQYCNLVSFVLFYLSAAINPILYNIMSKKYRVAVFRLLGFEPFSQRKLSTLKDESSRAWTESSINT
Experiment: Agonist activity at human GHS receptor expressed in H4 glioma cells assessed as intracellular calcium concentration by FLIPR assay
Lab note - cut at 20 nM for EC50: condition met if strictly below, condition not met if not.

{"columns": ["Compound", "Label"],
 "data": [
  ["CC(C)(N)C(=O)N[C@H](COCc1ccccc1)c1nnnn1[C@@H](CC#N)COc1ccccn1", "condition met"],
  ["CC(C)(N)C(=O)N[C@H](COCc1ccccc1)c1nnnn1C(CC#N)CCc1ccccc1 (single isomer, unassigned; diastereomer 2)", "condition not met"],
  ["CC(C)(N)C(=O)N[C@H](COCc1ccccc1)c1nnnn1[C@H](CC#N)COc1ccccc1O", "condition met"],
  ["CC(C)(N)C(=O)N[C@H](COCc1ccccc1)c1nnnn1CCC(C#N)c1ccccc1 (mixture of isomers)", "condition not met"],
  ["CC(C)(N)C(=O)N[C@H](COCc1ccccc1)c1nnnn1C(/C=C/c1ccccc1)CC#N (single isomer, unassigned; diastereomer 1)", "condition met"]
]}

Attention now turns to another entry.
Is the reported EC50 for CC(C)(N)C(=O)N[C@H](COCc1ccccc1)c1nnnn1[C@@H](CC#N)COc1ccccc1 strictly below 20 nM?
condition met

###

The entries below come with measured Ki values attached.
Target: Growth hormone secretagogue receptor type 1 (Homo sapiens, UniProt Q92847)
Assay: Agonist activity at human GHS receptor expressed in H4 glioma cells
// note: answer is a bare numeric in nM

Take a look at these entries with their results.
{"columns": ["Compound", "Measured Parameter", "Assay Value"],
 "data": [
  ["CC(C)(N)C(=O)N[C@H](COCc1ccccc1)c1nnnn1[C@@H](CC#N)COc1ccccn1", "Ki", 503],
  ["CC(C)(N)C(=O)N[C@H](COCc1ccccc1)c1nnnn1CC(C#N)Cc1ccccc1 (mixture of isomers)", "Ki", 298]
]}

Attention now shifts to the item below.
# Ki (compound: CC(C)(N)C(=O)N[C@H](COCc1ccccc1)c1nnn(C(/C=C/c2ccccc2)CC#N)n1 (single isomer, unassigned; diastereomer 1) ) is 453
